# assay_system: Growth hormone secretagogue receptor type 1 (Homo sapiens)
# test_method_notes: Inhibition of ghrelin binding to Growth hormone secretagogue receptor expressed in BHK cells
parameter_measured: IC50 (µM)
One number for each entry, in µM.

{"columns": ["chemical_string", "parameter_measured", "result"],
 "data": [
  ["CN(C)CCCN1C(=O)[C@H](Cc2ccccc2)N(Cc2ccc(-c3ccccc3-c3nn[nH]n3)cc2)C1=S", "IC50", 35]
]}

Please give IC50, item by item, for the list that follows.
1. O=C1[C@H](CCc2ccccc2)N(Cc2ccc(-c3ccccc3-c3nn[nH]n3)cc2)C(=O)N1CCCN1CCCC1
2. O=C1[C@H](CCc2ccccc2)N(Cc2cc(-c3ccccc3-c3nn[nH]n3)cs2)C(=O)N1CCCN1CCCCC1
3. CN(C)CCCN1C(=O)[C@H](c2ccccc2)N(Cc2ccc(-c3ccccc3-c3nn[nH]n3)cc2)C1=S
4. CN(C)CCCN1C(=O)[C@H](CCc2ccccc2)N(Cc2ccc(-c3ccccc3-c3nn[nH]n3)cc2)C1=O
5. CN(C)CCCN1C(=O)[C@H](CCc2ccccc2)N(Cc2ccc(-c3ccccc3-c3nn[nH]n3)cc2)C1=S
6. O=C1[C@H](CCc2ccccc2)N(Cc2ccc(-c3ccccc3-c3nn[nH]n3)cc2)C(=O)N1CCCN1CCCCC1

**A:**
[1.1, 1.3, 35, 4, 8.2, 0.6]

====

# assay_system: Growth hormone secretagogue receptor type 1 (Homo sapiens, UniProt Q92847)
# Sequence (Q92847 whole entry): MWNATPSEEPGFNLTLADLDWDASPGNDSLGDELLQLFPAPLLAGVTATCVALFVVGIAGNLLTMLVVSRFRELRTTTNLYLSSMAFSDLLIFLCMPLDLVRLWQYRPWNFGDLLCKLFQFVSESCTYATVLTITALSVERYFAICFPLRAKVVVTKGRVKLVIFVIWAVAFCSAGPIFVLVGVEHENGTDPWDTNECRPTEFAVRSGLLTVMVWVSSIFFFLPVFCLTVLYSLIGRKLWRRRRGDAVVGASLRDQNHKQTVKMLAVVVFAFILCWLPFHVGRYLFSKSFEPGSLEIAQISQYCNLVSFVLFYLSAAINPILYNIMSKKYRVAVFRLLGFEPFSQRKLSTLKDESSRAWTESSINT
# test_method_notes: Inhibition of ghrelin binding to Growth hormone secretagogue receptor expressed in BHK cells
pIC50: −log10 of the molar value.
parameter_measured: pIC50

Below are worked cases with known answers.
{"columns": ["chemical_string", "assay_system", "parameter_measured", "result"],
 "data": [
  ["NCCCN1C(=O)[C@H](CCc2ccccc2)N(Cc2ccc(-c3ccccc3-c3nn[nH]n3)cc2)C1=O", "Growth hormone secretagogue receptor type 1 (Homo sapiens, UniProt Q92847)", "pIC50", "< 4.00"],
  ["CN(C)C(=O)CCN1C(=O)[C@H](CCc2ccccc2)N(Cc2ccc(-c3ccccc3-c3nn[nH]n3)cc2)C1=O", "Growth hormone secretagogue receptor type 1 (Homo sapiens, UniProt Q92847)", "pIC50", "< 4.00"]
]}

Okay, now this compound:
**Q:** Enter reported pIC50 observed with Growth hormone secretagogue receptor type 1 (Homo sapiens, UniProt Q92847) for CN(C)c1ccc(N2C(=O)[C@H](CCc3ccccc3)N(Cc3ccc(-c4ccccc4-c4nn[nH]n4)cc3)C2=S)cc1
**A:** < 4.00
